From: patent US20200055939A1

target.entity: MICA*004 on HCC1534 cells (human, UniProt Q29983 24-383); note: test concentration or dose not given here
method: cell-based or functional assay
endpoint.name: % Inhibition (%)
# value in %; strip the unit string

input: Would you kindly share the measured % Inhibition for 15F11v6 (antibody, IgG1, V domains shown, humanized variant of 15F11) VH: EIQLVQSGAEVKKPGSSVKVSCKPSGYAFTSNNIYWVRQAPGQGLEWIGYIDPYIGRIIYNQQFKDRATLTVDKSTSTAYMELSSLRSEDTAVYYCSRSGERSNFDYWGQGTLVTVSS VL: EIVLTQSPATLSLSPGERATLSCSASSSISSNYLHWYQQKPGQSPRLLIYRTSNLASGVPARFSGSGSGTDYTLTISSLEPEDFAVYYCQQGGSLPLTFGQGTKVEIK ?
output: -14

input: Now the same for 1D5v18 (antibody, IgG1, V domains shown, humanized variant of 1D5) VH: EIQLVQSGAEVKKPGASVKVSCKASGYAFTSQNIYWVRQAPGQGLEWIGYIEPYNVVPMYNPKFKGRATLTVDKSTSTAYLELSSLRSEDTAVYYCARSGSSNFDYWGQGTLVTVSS VL: DIQLTQSPSSLSASVGDRVTITCSASSSISSHYLHWYQQKPGKSPKLLIYRTSNLASGVPSRFSGSGSGTDFTLTISSLQPEDFATYYCQQGSSLPLTFGQGTKVEIK
output: 47

input: Now the same for 1D5v8 (antibody, IgG1, V domains shown, humanized variant of 1D5) VH: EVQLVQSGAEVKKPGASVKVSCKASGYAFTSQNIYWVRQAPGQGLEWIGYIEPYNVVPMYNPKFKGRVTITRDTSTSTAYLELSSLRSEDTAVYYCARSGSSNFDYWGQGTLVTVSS VL: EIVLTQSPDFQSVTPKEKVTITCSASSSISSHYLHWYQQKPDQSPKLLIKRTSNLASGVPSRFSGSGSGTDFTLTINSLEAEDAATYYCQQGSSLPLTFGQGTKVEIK
output: 42

input: Now the same for 15F11v4 (antibody, IgG1, V domains shown, humanized variant of 15F11) VH: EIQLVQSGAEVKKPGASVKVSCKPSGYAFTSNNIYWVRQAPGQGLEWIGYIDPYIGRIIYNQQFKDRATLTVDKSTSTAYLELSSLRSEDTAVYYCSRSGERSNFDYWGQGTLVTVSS VL: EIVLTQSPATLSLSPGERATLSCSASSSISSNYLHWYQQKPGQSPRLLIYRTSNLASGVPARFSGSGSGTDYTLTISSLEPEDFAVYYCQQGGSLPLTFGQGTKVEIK
output: -34

input: Now the same for 1D5v7 (antibody, IgG1, V domains shown, humanized variant of 1D5) VH: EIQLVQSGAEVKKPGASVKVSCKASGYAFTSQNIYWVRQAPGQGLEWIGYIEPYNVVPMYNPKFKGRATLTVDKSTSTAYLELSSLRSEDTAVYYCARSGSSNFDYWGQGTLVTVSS VL: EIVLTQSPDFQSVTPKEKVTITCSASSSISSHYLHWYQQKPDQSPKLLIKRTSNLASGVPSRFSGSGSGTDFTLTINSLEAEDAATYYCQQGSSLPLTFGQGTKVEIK
output: 48

Please look at the following binder next.
input: Would you kindly share the measured % Inhibition for 6E1.1.12 (antibody, V domains shown, mouse variable domains) VH: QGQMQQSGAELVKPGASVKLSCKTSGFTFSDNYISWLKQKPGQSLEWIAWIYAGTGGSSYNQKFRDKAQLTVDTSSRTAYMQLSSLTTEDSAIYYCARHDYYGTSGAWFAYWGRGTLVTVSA VL: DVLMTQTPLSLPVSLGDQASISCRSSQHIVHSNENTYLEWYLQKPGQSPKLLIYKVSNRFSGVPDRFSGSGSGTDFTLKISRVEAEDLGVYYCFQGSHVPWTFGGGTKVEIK ?
output: 34
